target: Carbonic anhydrase 2 (Homo sapiens) (UniProt P00918); test: In vitro carbonic anhydrase activation in human cloned Carbonic anhydrase II (hCA II)
measurement_name: KA (µM)

O=C(CCNC(=O)[C@H](Cc1ccccc1)NC(=O)NS(=O)(=O)c1ccc(F)cc1)N[C@@H](Cc1c[nH]cn1)C(=O)O :: 6
O=C(CCNC(=O)C1CCCN(C(=O)NS(=O)(=O)c2ccc(F)cc2)C1)NC(Cc1c[nH]cn1)C(=O)O (stereo not given) :: 6
O=C(CCNC(=O)[C@H]1CCCCN1C(=O)NS(=O)(=O)c1ccc(F)cc1)NC(Cc1c[nH]cn1)C(=O)O (stereo not given in full) :: 6
Cc1ccccc1S(=O)(=O)NC(=O)N[C@@H](Cc1ccccc1)C(=O)NCCC(=O)N[C@@H](Cc1c[nH]cn1)C(=O)O :: 10
Cc1ccccc1S(=O)(=O)NC(=O)NCC(=O)NCC(=O)NCCC(=O)N[C@@H](Cc1c[nH]cn1)C(=O)O :: 10

a: O=C(CCNC(=O)[C@@H](NC(=O)NS(=O)(=O)c1ccc(F)cc1)c1ccccc1)N[C@@H](Cc1c[nH]cn1)C(=O)O
b: O=C(CCNC(=O)[C@H](Cc1c[nH]cn1)NC(=O)CNC(=O)NS(=O)(=O)c1ccc(F)cc1)N[C@@H](Cc1c[nH]cn1)C(=O)O
c: Cc1ccccc1S(=O)(=O)NC(=O)N[C@@H](C)C(=O)NCCC(=O)N[C@@H](Cc1c[nH]cn1)C(=O)O
Sort the 3 compounds by KA; largest first, smallest last. API: response body holds the labels in the requested order.
c, a, b
(c: 13 µM, a: 7 µM, b: 0.03 µM)

I: Cc1ccccc1S(=O)(=O)NC(=O)N[C@@H](CC(N)=O)C(=O)NCCC(=O)N[C@@H](Cc1c[nH]cn1)C(=O)O
II: O=C(CCNC(=O)[C@H](Cc1c[nH]cn1)NC(=O)NS(=O)(=O)c1ccc(F)cc1)N[C@@H](Cc1c[nH]cn1)C(=O)O
Which gives the smaller KA number: I or II ? Respond using the label that marks the chosen record.
II
